# MFI listing for each entry below
target: T1, human PD-L1 wild type (glycosylated), expressed on cells (human, UniProt Q9NZQ7 19-290, N-glycosylated at N35, N192, N200 and N219); assay: flow cytometry on BT549 cells overexpressing PD-L1 WT (biotin labeled, mixed with 4NQ cells), FITC secondary antibody
T1 construct: Endogenous on NCI-H226, A431 and MDA-MB231 cells and transfected into 4T1 cells in the functional assays; In the Western blots the protein was in cell lysate; also called PD-L1 WT; WT PD-L1
T1 sequence (Q9NZQ7 19-290): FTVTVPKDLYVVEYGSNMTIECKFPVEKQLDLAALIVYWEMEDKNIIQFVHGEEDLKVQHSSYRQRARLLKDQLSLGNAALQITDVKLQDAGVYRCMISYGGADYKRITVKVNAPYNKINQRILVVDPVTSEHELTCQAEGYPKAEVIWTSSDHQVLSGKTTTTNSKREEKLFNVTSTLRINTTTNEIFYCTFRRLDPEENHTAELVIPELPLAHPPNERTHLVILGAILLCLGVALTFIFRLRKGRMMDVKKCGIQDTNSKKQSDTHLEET

| binder | MFI |
| --- | --- |
| STM108 MAb (antibody, V domains shown) VH: EVMLVESGGALVKPGGSLKLSCAASGFSLSNYVMSWVRQTPEKRLEWVATISSGGRYIYYTDSVKGRFTISRDNARNTLYLQMSSLRSEDTAMYYCARDGSTLYYFDYWGQGTTLTVSS VL: QTVLTQSPAIMSASPGEKVTMTCSASSSVDYMYWYQQKPGSSPRLLIYDTSNLASGVPVRFSGSGSGTSYSLTISRMEAEDAATYYCQQWSSSPPITFGTGTKVELK | 117 |
| STM115 MAb (antibody, V domains shown) VH: EVMLVESGGALVEPGGSLKLSCVASGFTFSNYAMSWVRQTPERRLEWVASITNGGTYTYYPDSVKGRFTISRDNARNTLYLQMSSLRSEDTAMYFCARPLHYYGGSHFDYWGQGTTLTVSS VL: EIVLTQSPALMAASPGEKVTITCSVSSSISSNTLHWYQQKSEISPKPWIYGTSNLASGVPVRFSGSGSGTSYSLTISSMEAEDAATYYCQQWSSYPLTFGGGTKLEIK | 51.1 |
| STM073 MAb (antibody, V domains shown) VH: EVQLVESGGALVKPGGSLKLSCAASGFTFSNSAMSWVRQTPEKRLEWVATISSAGSYTYYPDSVKGRFTISRDNAKNTLYLQMSSLRSEDTALYYCTRHYDYYFDYWGQGATLTVSS VL: QIVLTQSPAIMSASPGEKVTLTCSASSSVSYMHWYQQKPGSSPRLVIYDTSNLASGVPVRFSGSGSGTSYSLTVSRMEAEDAATYYCQQWSDHPLTFGAGTKLELK | 63.9 |
